List of max response values.
targetOrSystem: Peroxisome proliferator-activated receptor alpha (Homo sapiens)
methodNotes: qHTS assay for small molecule agonists of the peroxisome proliferator-activated receptor alpha (PPARalpha) signaling pathway (AID 651778); note: % of control where 0% means no effect
reportedConditions: PathHunter PPARalpha complementation, chemiluminescence, 6 h; active compounds read high

- compound: "CCCCC(CC)COC(=O)C(C#N)=C(c1ccccc1)c1ccccc1 (configuration not stated)"
  max response, %: -1.78
- compound: "N[C@@H](Cc1cc(I)c(Oc2cc(I)c(O)c(I)c2)c(I)c1)C(=O)O"
  max response, %: -3.72
- compound: "Nc1ccc(S(N)(=O)=O)cc1"
  max response, %: 3.64
- compound: "CC1(C)NC(=O)N(c2ccc([N+](=O)[O-])c(C(F)(F)F)c2)C1=O"
  max response, %: -2.93
- compound: "CC(=O)N1CCN(c2ccc(OC[C@H]3CO[C@](Cn4ccnc4)(c4ccc(Cl)cc4Cl)O3)cc2)CC1"
  max response, %: -0.168
- compound: "O=c1c(O)c(-c2ccc(O)cc2O)oc2cc(O)cc(O)c12"
  max response, %: -3.16
- compound: "CNC[C@H](O)c1ccc(O)c(O)c1"
  max response, %: -0.497
